- experiment_summary: Volume of distribution at steady state in male ICR mouse at 2 mg/kg, iv measured upto 24 hrs by LC-MS/MS analysis
- Type: ADME, organism-based
- protocol_conditions: in vivo, read-out: Vdss
metric_name: Vd (L/kg)

>  <line_notation>
[2H]C([2H])([2H])NC1=NC(=O)[C@]2(CCc3ncccc32)c2cc(C(F)(F)F)ccc21

>  <metric_name>
Vd

>  <result>
1.7

$$$$

* * *

- experiment_summary: Microsomal metabolic stability in mouse liver microsomes assessed as clearance
- Type: ADME, Microsome
- protocol_conditions: read-out: CLH

>  <compound>
[2H]C([2H])([2H])NC1=NC(=O)C2(CCc3ncccc32)c2cc(C(F)(F)F)ccc21 (racemic)

>  <units_symbol>
mL/min/kg

>  <comparison_sign>
=

>  <CLint scaled>
42.5

$$$$
>  <compound>
COc1ccc(-c2c(Nc3ccccn3)[nH]c3c(C4=CCCCC4)c(-c4ccccc4)nn3c2=O)cc1

>  <units_symbol>
mL/min/kg

>  <comparison_sign>
=

>  <CLint scaled>
40.3

$$$$
>  <compound>
[2H]C([2H])([2H])NC1=NC(=O)[C@]2(CCc3ncccc32)c2cc(C(C)(F)F)ccc21

>  <units_symbol>
mL/min/kg

>  <comparison_sign>
=

>  <CLint scaled>
37

$$$$
>  <compound>
CNC1=NC(=O)C2(CCc3c(F)cccc32)c2nc(C(F)(F)F)ccc21 (stereo not given)

>  <units_symbol>
mL/min/kg

>  <comparison_sign>
=

>  <CLint scaled>
118

$$$$
>  <compound>
CNC1=NC(=O)C2(CCc3ncccc32)c2cc(C(C)(F)F)ccc21 (stereo not given)

>  <units_symbol>
mL/min/kg

>  <comparison_sign>
=

>  <CLint scaled>
55

$$$$
>  <compound>
COC1(C(=O)N2Cc3nc(Cl)nc(N[C@H](C)c4cc(N)cc(C(F)(F)F)c4)c3C2)CCOCC1

>  <units_symbol>
mL/min/kg

>  <comparison_sign>
<

>  <CLint scaled>
9.3

$$$$
>  <compound>
CNC1=NC(=O)C2(CCc3ccccc32)c2nc(C(F)(F)F)ccc21 (stereo not given)

>  <units_symbol>
mL/min/kg

>  <comparison_sign>
=

>  <CLint scaled>
59

$$$$
>  <compound>
CNC1=NC(=O)C2(CCc3ncccc32)c2cc(C3CC3)c(F)cc21 (stereo not given)

>  <units_symbol>
mL/min/kg

>  <comparison_sign>
=

>  <CLint scaled>
38.9

$$$$
>  <compound>
[2H]C([2H])([2H])NC1=NC(=O)[C@]2(CCc3ncccc32)c2cc(C3CC3)c(F)cc21

>  <units_symbol>
mL/min/kg

>  <comparison_sign>
=

>  <CLint scaled>
38.9

$$$$
>  <compound>
CNC1=NC(=O)C2(CCc3ncccc32)c2nc(C(F)(F)F)ccc21 (stereo not given)

>  <units_symbol>
mL/min/kg

>  <comparison_sign>
=

>  <CLint scaled>
67

$$$$
>  <compound>
CNC1=NC(=O)C2(CCc3ncccc32)c2cc(C3CC3)ccc21 (stereo not given)

>  <units_symbol>
mL/min/kg

>  <comparison_sign>
=

>  <CLint scaled>
85.7

$$$$
>  <compound>
NC1=NC(=O)C2(CCc3ncccc32)c2cc(C(F)(F)F)ccc21 (racemic)

>  <units_symbol>
mL/min/kg

>  <comparison_sign>
<

>  <CLint scaled>
9.6

$$$$
>  <compound>
CNC1=NC(=O)C2(CCc3c(C#N)cccc32)c2nc(C(F)(F)F)ccc21 (stereo not given)

>  <units_symbol>
mL/min/kg

>  <comparison_sign>
=

>  <CLint scaled>
48.2

$$$$
>  <compound>
[2H]C([2H])([2H])NC1=NC(=O)[C@]2(CCc3ncccc32)c2cc(C(F)(F)F)ccc21

>  <units_symbol>
mL/min/kg

>  <comparison_sign>
<

>  <CLint scaled>
29.3

$$$$
>  <compound>
CNC1=NC(=O)C2(CCCc3ccccc32)c2nc(C(F)(F)F)ccc21 (stereo not given)

>  <units_symbol>
mL/min/kg

>  <comparison_sign>
=

>  <CLint scaled>
193

$$$$
>  <compound>
CNC1=NC(=O)C2(CCc3ncccc32)c2cc(C(F)(F)F)ccc21 (racemic)

>  <units_symbol>
mL/min/kg

>  <comparison_sign>
=

>  <CLint scaled>
51.2

$$$$
>  <compound>
[2H]C([2H])([2H])NC1=NC(=O)[C@]2(CCc3ncccc32)c2cc(C(C)(F)F)c(F)cc21

>  <units_symbol>
mL/min/kg

>  <comparison_sign>
<

>  <CLint scaled>
29.3

$$$$
>  <compound>
[2H]C([2H])([2H])NC1=NC(=O)[C@]2(CCc3ncccc32)c2cc(C3CC3)ccc21

>  <units_symbol>
mL/min/kg

>  <comparison_sign>
=

>  <CLint scaled>
63

$$$$
>  <compound>
O=C1N=C(NCC(F)(F)F)c2ccc(C(F)(F)F)cc2C12CCc1ncccc12 (racemic)

>  <units_symbol>
mL/min/kg

>  <comparison_sign>
<

>  <CLint scaled>
29.3

$$$$
>  <compound>
CNC1=NC(=O)C2(CCc3cc(F)ccc32)c2nc(C(F)(F)F)ccc21 (stereo not given)

>  <units_symbol>
mL/min/kg

>  <comparison_sign>
=

>  <CLint scaled>
71.6

$$$$
